tested on: HT-29; assay: NCI tumour cell line growth inhibition, 48 h
Calls of active or inactive are those of the source. Cut-off read from the data, not from the text of the source: active = GI50 up to about 1.1 µM and inactive = higher.
Reported GI50 values follow for various compounds

{"columns": ["compound", "GI50"],
 "data": [
  ["COc1ccc(NC(=O)C(=O)C2CNC(=O)NC2=O)c(OC)c1 (stereo unspecified)", "> 100 µM (inactive)"],
  ["Cn1c2c(cc(-c3ccccc3)c1=O)COc1ccccc1-2", "19.9 µM (inactive)"],
  ["CC(C)(C)C1=C(Br)C(OC(=O)C(F)(F)F)(C(C)(C)C)OP1(=O)c1ccccc1 (stereo unspecified)", "37 µM (inactive)"],
  ["CCN1C(=O)C/C(=C\\C(C)=O)Nc2ccccc21", "> 100 µM (inactive)"],
  ["Cc1ccc(/C=C2/NC(=S)SC2=O)cc1", "28.6 µM (inactive)"],
  ["CCC12CCC[C@@]13C=C[C@H](O3)C(C)(C)C2=O (stereo partly specified)", "> 100 µM (inactive)"]
]}
